Hello, the source for this data is patent US20230295310A1, in case you need it.

- targetOrTestSystem: T1, human CD3e/g (human, UniProt P07766 23-126; P09693 23-116)
- T1 construct: Bought soluble protein; also called hCD3e/g; human CD3e/g (Acro CDD-C52W4)
- T1 sequence (P07766 23-126, chain 1 of 2): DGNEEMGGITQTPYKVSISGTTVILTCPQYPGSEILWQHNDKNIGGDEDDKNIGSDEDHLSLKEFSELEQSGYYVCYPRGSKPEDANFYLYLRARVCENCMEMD
- T1 sequence (P09693 23-116, chain 2 of 2): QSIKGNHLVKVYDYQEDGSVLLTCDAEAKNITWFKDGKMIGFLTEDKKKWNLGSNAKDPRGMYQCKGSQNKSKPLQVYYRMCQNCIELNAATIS
- assayOverview: SPR (Carterra LSA), mAb on chip
- Description: High-throughput surface plasmon resonance (SPR) coupled kinetic experiments were performed on a Carterra LSA® instrument equipped with an HC-30M chip type (Carterra, USA). The instrument uses two microfluidic modules, a single-flow cell (SFC) and a 96 printhead, to deliver samples to the chip surface via back-and-forth cycling of a fixed sample volume. […] The data were analyzed using the Carterra Kinetics analysis software. […]
measuredMetric: Kd (nM)
Respond with the bare value in nM.

(Q) So what does the record say about Kd for mAb 201 (antibody, V domains shown, VH and VL only) VH: QVQLVESGGGVVQPGRSLRLSCAASGFTFSGYGMHWVRQAPGKGLEWVAIIYYNGKKEYYADSVKGRFTISRDNSKNTLYLQMNSLRAEDTAVYYCTRGEGYNWFDPWGQGTLVTVSS VL: EIVMTQSPATLSVSPGERATLSCRASQSVSSSLAWYQQKPGQAPRLLIYGASTRATGIPARFSGSGSGTEFTLTISSLQSEDFAVYYCQQYNNWPLTFGGGTKVEIK ?
(A) 13

(Q) So what does the record say about Kd for mAb 205 (antibody, V domains shown, VH and VL only) VH: QVQLVESGGGVVQPGKSLRLSCAASGFTFSGYGMHWVRQAPGKGLEWVAIIYYNGKKEYYADSVKGRFTISRDNSKNTLYLQMNSLRAEDTAVYYCTRGEGYNWFDPWGQGTLVTVSS VL: EIVMTQSPATLSVSPGERATLSCRASQSVSSNLAWYQQKPGQAPRLLIYGASTRATGIPARFSGSGSGTEFTLTISSLQSEDFAVYYCKQYNNWPLTFGGGTKVEIK ?
(A) 8.4

(Q) So what does the record say about Kd for mAb 262 (antibody, V domains shown, VH and VL only) VH: EVRLLESGGGLVQPGGSLRLSCAASGFTFRSSSMAWVRQDPGKGLEWVTGIRGSGGRTYDADSVKGRFTISRDNSKNTLYLQMNSLRAEDTAEYYCAKLYDYYNDYMDVWGKGTTVTVSS VL: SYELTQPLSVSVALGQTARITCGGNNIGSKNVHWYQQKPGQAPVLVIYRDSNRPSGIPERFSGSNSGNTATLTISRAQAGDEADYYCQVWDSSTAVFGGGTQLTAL ?
(A) 10

(Q) So what does the record say about Kd for mAb 94 (antibody, V domains shown, VH and VL only) VH: QVHLVESGGGVVQPGRSLRLSCSASGFTFSGYGMHWVRQAPGKGLEWVALIYFDGRNKYYADSVKGRFTISRDNSKNTLYLQMNSLRAEDTAVYYCARGGGYNWFDPWGQGTLVTVSS VL: DIQMTQSPSSLSASVGDRVTITCRASQSISNYLNWYQQKPGKAPKLLIYLASSLQSGVPSRFSGSGSGTDFTLTINSLQPEDFASYYCQLSYSSPFTFGPGTKVDVN ?
(A) 7.8

(Q) So what does the record say about Kd for mAb 81 (antibody, V domains shown, VH and VL only) VH: QVQLAESGGGVVQPGRSLRLSCAASGFTFSGYGMHWVRQAPGKGLDWVAIIYYDGKNKYYADSVKGRFTISRDNSKNTLYLQMNSLRAEDTAVYYCARGGGYNWFDPWGQGTLVTVSS VL: DIQMTQSPSSLSASVGDRVTITCRPSQTISNYLNWYQQDPGKAPKLLIYAASSLQSGVPSRFSGSGSGTDFTLTISSLQPEDFATYYCQQSYSTPITFGRGTRLEIK ?
(A) 69.6

(Q) So what does the record say about Kd for mAb 204 (antibody, V domains shown, VH and VL only) VH: QVQLVESGGGVVQSGRSLRLSCAASGFTFSGYGMHWVRQAPGKGLEWVAIVYYDGKNKYYADSVKGRFTISRDNSKNTLYLQMNSLRAEDTAVYYCVRGEGYNWFDPWGQGTLVTVSS VL: EIVMTQSPATLSVSPGERATLSCRASQSVSSNLAWYQQKPGQVPRLLIYGASTRATGIPARFSGSGSGTQFTLTISSLQSEDFAVYYCQQYNNWPLTFGGGTKVEIK ?
(A) 90

(Q) So what does the record say about Kd for mAb 199 (antibody, V domains shown, VH and VL only) VH: QVQLVESGGGVVQPGRSLRLSCAASGFTFSGYGMHWVRQAPGKGLEWVAIIYYNGKKEYYADSVKGRFTIFRDNSKNTLYLHMNSLRAEDTAVYYCTRGEGYNWFDPWGQGTLVTVSS VL: EIVMTQSPATLSVSPGERATLSCRASQSVSRNLAWYQQKPGQAPRLLIYGASTRATGIPARFSGSGSGTEFTLTISSLQSEDFAVYYCQQYNNWPLTFGGGTKVEIK ?
(A) 29

(Q) So what does the record say about Kd for mAb 116 (antibody, V domains shown, VH and VL only) VH: EVQLVESGGGLVKTGGSLRLSCVASGFSFKKAWMNWVRQAPGKGLEWVGRIKRNSDGGTTDYAAPVKGRFTLSRDDSKNTLYLQMNSLKTEDTAVYYCTTLDSSSWYVGYYYMDVWGKGTTVTVSS VL: DIQMTQSPFSVSASVGDRVTITCRASQDINNWLAWYQQKPGKAPKILIYTASSLQSGVPSRFSGSGSGTDFTLTISSLQPEDFATYYCQQAHSLPITFGQGTRLEIK ?
(A) 24.1

(Q) So what does the record say about Kd for mAb 112 (antibody, V domains shown, VH and VL only) VH: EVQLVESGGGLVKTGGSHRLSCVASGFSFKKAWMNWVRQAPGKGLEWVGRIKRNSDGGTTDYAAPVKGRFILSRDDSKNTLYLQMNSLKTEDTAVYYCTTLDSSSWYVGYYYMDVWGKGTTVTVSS VL: DIQMTQSPSSVSASVGDRVTITCRASQDINNWLAWYQQKPGKAPKILIYTASNLQSGVPSRFSGSGSGTDFTLTISSLQPEDFATYFCQQAHSLPITFGQGTRLEIK ?
(A) 14.8

(Q) So what does the record say about Kd for mAb 72 (antibody, V domains shown, VH and VL only) VH: EVQLVDSGGGLVQPGGSLRLSCAASGFTFSSYWMSWVRQAPGKGLEWVANIKQDGSEKYYVDSVKGRFTISRDNVKNSLSLEMNSLRAEDTALYYCARDESSSWYWYFDLWGRGTLVTVSS VL: DIQMTQSPSTLSASVGDRVTITCRASQSISKWLAWYQQKPGKAPKLLIYKASSLENGVPSRFSGSGSGTEFTLTISSLQPDDFATYYCQQYSSYSRTFGQGTKVEIK ?
(A) 394
